- SUBJECT OF TEST: Protein deacetylase HDAC6 (Homo sapiens, UniProt Q9UBN7)
- Sequence (Q9UBN7 whole entry): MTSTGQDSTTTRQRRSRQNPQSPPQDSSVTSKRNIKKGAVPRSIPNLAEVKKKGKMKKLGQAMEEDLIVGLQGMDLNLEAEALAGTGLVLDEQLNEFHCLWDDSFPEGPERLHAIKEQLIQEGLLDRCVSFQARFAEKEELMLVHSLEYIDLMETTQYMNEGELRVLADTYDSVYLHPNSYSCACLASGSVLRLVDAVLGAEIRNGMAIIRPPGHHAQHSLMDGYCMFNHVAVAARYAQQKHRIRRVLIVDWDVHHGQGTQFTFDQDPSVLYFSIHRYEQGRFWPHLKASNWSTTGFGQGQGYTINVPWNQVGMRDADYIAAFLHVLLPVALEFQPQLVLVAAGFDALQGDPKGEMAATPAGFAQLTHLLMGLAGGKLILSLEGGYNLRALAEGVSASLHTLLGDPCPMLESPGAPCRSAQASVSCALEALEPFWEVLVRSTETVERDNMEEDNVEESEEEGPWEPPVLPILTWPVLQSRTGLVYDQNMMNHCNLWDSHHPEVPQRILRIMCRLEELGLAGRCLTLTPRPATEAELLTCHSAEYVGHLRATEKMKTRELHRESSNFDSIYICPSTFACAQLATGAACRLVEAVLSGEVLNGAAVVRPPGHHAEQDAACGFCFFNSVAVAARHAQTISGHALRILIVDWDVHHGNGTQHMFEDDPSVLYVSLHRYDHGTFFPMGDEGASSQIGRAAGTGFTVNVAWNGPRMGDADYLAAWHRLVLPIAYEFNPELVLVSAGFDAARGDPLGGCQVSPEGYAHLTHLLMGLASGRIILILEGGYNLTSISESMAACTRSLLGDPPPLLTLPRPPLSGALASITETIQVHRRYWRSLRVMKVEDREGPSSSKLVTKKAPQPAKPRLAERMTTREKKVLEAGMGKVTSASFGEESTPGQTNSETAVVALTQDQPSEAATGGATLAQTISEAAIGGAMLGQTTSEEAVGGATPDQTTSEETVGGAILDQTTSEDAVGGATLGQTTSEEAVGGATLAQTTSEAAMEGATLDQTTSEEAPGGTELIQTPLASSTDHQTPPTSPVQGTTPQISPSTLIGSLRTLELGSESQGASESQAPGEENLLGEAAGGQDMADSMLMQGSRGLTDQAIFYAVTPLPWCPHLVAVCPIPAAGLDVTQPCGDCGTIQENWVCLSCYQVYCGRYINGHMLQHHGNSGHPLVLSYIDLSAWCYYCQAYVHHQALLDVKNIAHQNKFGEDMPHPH
- ASSAY EXPLANATION: Inhibition of recombinant HDAC6 (unknown origin) using Boc-Lys(acetyl)-AMC as substrate preincubated for 1 hr followed by substrate addition and measured after 2 hrs by fluorescence based microplate reader analysis
Record form. Attribute: pIC50. Fill in for each entry.
FYI, pIC50 means -log10 of a concentration in mol per litre.

Entry `CCNNC(=O)c1ccc(Cn2nnnc2-c2cccs2)cc1` ; pIC50 = 7.80

Entry `CCNNC(=O)c1ccc(CNc2cccc3cccnc23)cc1` ; pIC50 = 7.39

Entry `CCNNC(=O)c1ccc(CN2c3ccccc3Sc3ccccc32)cc1` ; pIC50 = 6.76

Entry `CNNC(=O)c1ccc(CNC(=O)c2ccccc2)cc1` ; pIC50 = 6.06

----------
Record form. Attribute: pIC50. Fill in for each entry.
- SUBJECT OF TEST: Histone deacetylase 3 (Homo sapiens)
- Sequence (O15379 whole entry): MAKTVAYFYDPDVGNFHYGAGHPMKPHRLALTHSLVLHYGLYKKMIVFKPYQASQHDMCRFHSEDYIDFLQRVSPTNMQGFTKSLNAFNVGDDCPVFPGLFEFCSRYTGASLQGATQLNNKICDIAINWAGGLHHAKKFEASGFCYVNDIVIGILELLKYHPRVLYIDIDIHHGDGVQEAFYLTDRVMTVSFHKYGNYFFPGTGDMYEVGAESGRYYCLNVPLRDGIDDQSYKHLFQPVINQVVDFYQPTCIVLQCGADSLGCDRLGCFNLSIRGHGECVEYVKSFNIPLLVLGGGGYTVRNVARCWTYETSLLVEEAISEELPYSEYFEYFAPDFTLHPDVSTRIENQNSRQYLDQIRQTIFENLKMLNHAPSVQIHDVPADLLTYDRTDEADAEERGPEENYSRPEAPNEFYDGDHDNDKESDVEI
- ASSAY EXPLANATION: Inhibition of recombinant HDAC3 (unknown origin) using Boc-Lys(acetyl)-AMC as substrate preincubated for 1 hr followed by substrate addition and measured after 2 hrs by fluorescence based microplate reader analysis
pIC50: −log10 of the molar value.

Entry `CCNNC(=O)c1coc(-c2ccc(Br)cc2)c1` ; pIC50 = < 5.30

Entry `CCNNC(=O)c1ccc(Cn2c3ccccc3c3ccncc32)cc1` ; pIC50 = < 5.30

Entry `CCNNC(=O)c1ccc(Cn2c3c(c4ccccc42)CCCC3)cc1` ; pIC50 = < 5.30

Entry `CCNNC(=O)c1ccc(NC(=O)Nc2cccc3cccnc23)cc1` ; pIC50 = 6.35

----------
- Species on record: Homo sapiens
- ASSAY EXPLANATION: Selectivity index, ratio of IC50 for recombinant HDAC1(unknown origin) to IC50 for full length recombinant human HDAC6
Record form. Attribute: Ratio IC50. Fill in for each entry.
Keep it simple and answer with nothing but the number.

Entry `CCNNC(=O)c1ccc(Cn2nnnc2-c2cccs2)cc1` ; Ratio IC50 = 5

Entry `CCNNC(=O)c1ccc(CNC(=O)c2ccccc2)cc1` ; Ratio IC50 = 5.1

Entry `CCNNC(=O)c1ccc(CN2c3ccccc3CC(=O)c3ccccc32)cc1` ; Ratio IC50 = 37

Entry `CCNNC(=O)c1ccc(Cn2c3ccccc3c3cccnc32)cc1` ; Ratio IC50 = 77

Entry `CCNNC(=O)c1ccc(NC(=O)Nc2cccc3cccnc23)cc1` ; Ratio IC50 = 0.9

----------
- SUBJECT OF TEST: Protein deacetylase HDAC6 (Homo sapiens, UniProt Q9UBN7)
- ASSAY EXPLANATION: Inhibition of recombinant HDAC6 (unknown origin) using Boc-Lys(acetyl)-AMC as substrate preincubated for 1 hr followed by substrate addition and measured after 2 hrs by fluorescence based microplate reader analysis
ENDPOINT NAME: IC50

Entry `CCNNC(=O)c1coc(-c2ccc(Br)cc2)c1` ; IC50 = > 5 µM

Entry `CCCNNC(=O)c1ccc(CNC(=O)c2ccccc2)cc1` ; IC50 = > 5 µM

Entry `CCNNC(=O)c1csc(-c2cccnc2)n1` ; IC50 = > 5 µM
